Molecular target: GKRP (Glucokinase Regulatory Protein) with human His-hepatic GK (Homo sapiens)
Sequence (Q14397 1-625): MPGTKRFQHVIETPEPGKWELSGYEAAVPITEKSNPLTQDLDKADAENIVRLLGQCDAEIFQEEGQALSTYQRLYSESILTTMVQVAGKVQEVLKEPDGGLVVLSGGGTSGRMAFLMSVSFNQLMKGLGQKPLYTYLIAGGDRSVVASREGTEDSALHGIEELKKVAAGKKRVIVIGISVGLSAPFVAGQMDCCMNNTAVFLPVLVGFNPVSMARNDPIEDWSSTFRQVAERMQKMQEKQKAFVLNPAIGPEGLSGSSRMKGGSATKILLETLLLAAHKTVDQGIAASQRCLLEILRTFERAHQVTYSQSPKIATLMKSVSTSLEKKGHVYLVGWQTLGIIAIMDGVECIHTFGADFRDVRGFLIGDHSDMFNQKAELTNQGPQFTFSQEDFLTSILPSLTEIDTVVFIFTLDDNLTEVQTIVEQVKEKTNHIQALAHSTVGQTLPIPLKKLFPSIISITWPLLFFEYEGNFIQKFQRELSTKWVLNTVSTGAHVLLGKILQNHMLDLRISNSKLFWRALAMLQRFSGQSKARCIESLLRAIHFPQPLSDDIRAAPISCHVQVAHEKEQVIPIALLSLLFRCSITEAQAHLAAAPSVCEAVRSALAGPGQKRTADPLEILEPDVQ
Test: biochemical
Settings: GK-GKRP EC50 (LC MS/MS-2), 13C-glucose-6-phosphate formation; 280 nM GKRP (10×), 30 nM GK (5×)
Rule: EC50 below 200 nM gives label 1, anything at or above gives label 0.

# count of solved cases: 6
>  <molecule>
CC(O)(c1ccc(N2CCN(S(=O)(=O)c3cccs3)C[C@@H]2CN2C3CCCC2CC(=O)C3)cc1)C(F)(F)F (mixture of isomers)

>  <assigned.class>
label 1

$$$$
>  <molecule>
CC(O)(c1ccc(N2CCN(S(=O)(=O)c3cccs3)C[C@@H]2CN2C3CCCC2CC(O)C3)cc1)C(F)(F)F (mixture of isomers)

>  <assigned.class>
label 1

$$$$
>  <molecule>
Nc1ccc(S(=O)(=O)N2CCN(c3ncc(C(O)(C(F)(F)F)C(F)(F)F)cn3)[C@@H](CC3CCOCC3)C2)s1

>  <assigned.class>
label 1

$$$$
>  <molecule>
Nc1ccc(S(=O)(=O)N2CCN(c3ncc(C(O)(C(F)(F)F)C(F)(F)F)cn3)[C@@H](CN3C4COCC3CC(=O)C4)C2)s1

>  <assigned.class>
label 1

$$$$
>  <molecule>
CC(O)(c1ccc(N2CCN(S(=O)(=O)c3cccs3)C[C@@H]2CNC2CCOCC2)cc1)C(F)(F)F (mixture of isomers)

>  <assigned.class>
label 0

$$$$
>  <molecule>
CC(C)N(C[C@H]1CN(S(=O)(=O)c2cccs2)CCN1c1ccc(C(C)(O)C(F)(F)F)cc1)C(C)C (mixture of isomers)

>  <assigned.class>
label 1

$$$$

Threshold test, EC50 < 200 nM: CC(O)(c1ccc(N2CCN(S(=O)(=O)c3cccs3)C[C@@H]2CNS(=O)(=O)c2ccccc2)cc1)C(F)(F)F (mixture of isomers) label 0

###

molecular target: interaction between glucokinase (GK) and glucokinase regulatory protein (GKRP) (Homo sapiens, UniProt Q14397); assay: biochemical; assay type: binding; conditions: avi-tagged GKRP, GK-fluorescein, AlphaScreen beads; read-out: GK-GKRP IC50 (Binding)
parameter.measured: log10 of IC50 (log10 of the value in nM)
Heads up: the numbers are on a log10 scale; they represent IC50 in nM.

Using the record for CC(O)(c1ccc(N2CCN(S(=O)(=O)c3ccc(N)s3)CC2)cc1)C(F)(F)F (racemic) [Example 90] , report its log10 of IC50. 2.65

Using the record for COc1cccc(CC2CN(S(=O)(=O)c3cccs3)CCN2c2ccc(C(O)(C(F)(F)F)C(F)(F)F)cc2)c1 (racemic) [Example 173] , report its log10 of IC50. 2.73

Using the record for CCC(C#Cc1cc(C(O)(C(F)(F)F)C(F)(F)F)ccc1N1CCN(S(=O)(=O)c2cccs2)CC1)OC (racemic) [Example 155] , report its log10 of IC50. 2.16

Using the record for COC1C[C@H]2COC[C@@H](C1)N2C[C@H]1CN(S(=O)(=O)c2cccs2)CCN1c1ccc(C(C)(O)C(F)(F)F)cc1 (stereo partly drawn) [Example 109] , report its log10 of IC50. 1.86

Using the record for Nc1ccc(S(=O)(=O)N2CCN(c3ncc(C(O)(C(F)(F)F)C(F)(F)F)cn3)[C@@H](CN3C4COCC3CC(O)C4)C2)s1 (stereo partly drawn) [Example 98 nonan-7-ol (endo)] , report its log10 of IC50. 0.30

Using the record for C[C@H]1COCCN1C[C@H]1CN(S(=O)(=O)c2ccc(N)nc2)CCN1c1ccc([C@@](C)(O)C(F)(F)F)cc1 (single isomer, unassigned) [Example 125 Peak #1] , report its log10 of IC50. 0.60

###

In this section we review reported pEC50 values for a set of compounds.
Biological target: GKRP (Glucokinase Regulatory Protein) with human His-hepatic GK (Homo sapiens, UniProt Q14397)
Assay: biochemical
Details: 13C-glucose-6-phosphate formation; 280 nM GKRP (10×), 30 nM GK (5×); read-out: GK-GKRP EC50 (LC MS/MS-2)
Method: GKRP LC MS/MS-2 Biochemical Assay This assay is used to directly measure the formation of ^13C-glucose-6-phosphate from ^13C-glucose by LC MS/MS. Begin by preparing the following solutions: Compound Buffer (CB): 50 mM Tris, pH 7.5/4 mM MgCl2/6% DMSO/fresh 10 mM DTT from 1M frozen stock. Enzyme Buffer (EB): 50 mM Tris, pH 7.5/4 mM MgCl2/6% DMSO/fresh 0.1% BSA/fresh 0.01% Brij-35 (10% BSA and 1% Brij-35 stock). GK (Glucokinase) Working Stock (5×): Dilute human His-hepatic GK to 30 nM in EB buffer. […]
Scale: pEC50 equals -log10([C]), with [C] in mol/L.

Recorded results for 4 compounds are shown here.
>  <compound>
O=S(=O)(c1cccs1)N1CCN(c2ncc(C(O)(C(F)(F)F)C(F)(F)F)cn2)[C@@H](CC2CCOCC2)C1 [Example 134]

>  <number>
7.10

$$$$
>  <compound>
CC1(C)C(=O)NCCN1C[C@H]1CN(S(=O)(=O)c2cccs2)CCN1c1ccc(C(C)(O)C(F)(F)F)cc1 (single isomer, unassigned) [Example 180 Peak #1]

>  <number>
7.40

$$$$
>  <compound>
CC(O)(c1ccc(N2CCN(S(=O)(=O)c3cccs3)C[C@@H]2CNS(=O)(=O)c2cccnc2)cc1)C(F)(F)F (mixture of isomers) [Example 192]

>  <number>
6.90

$$$$
>  <compound>
CC(O)(c1ccc(N2CCN(S(=O)(=O)c3cccs3)CC2CN2C3COCC2C(O)C3)cc1)C(F)(F)F (single isomer, unassigned) [Example 77 Peak #2]

>  <number>
7.72

$$$$

Using the record for CC(O)(c1ccc(N2CCN(S(=O)(=O)c3cccs3)C[C@@H]2CN2C3COCC2C(O)C3)cc1)C(F)(F)F (stereo partly drawn) [Example 78] , report its pEC50. 7.30

Using the record for CC(O)(c1ccc(N2CCN(S(=O)(=O)c3cccs3)C[C@@H]2CN(CC2CC2)S(C)(=O)=O)cc1)C(F)(F)F (mixture of isomers) [Example 202] , report its pEC50. 7.41

###

Biological target: GKRP (Glucokinase Regulatory Protein) with human His-hepatic GK (Homo sapiens)
Sequence (Q14397 1-625): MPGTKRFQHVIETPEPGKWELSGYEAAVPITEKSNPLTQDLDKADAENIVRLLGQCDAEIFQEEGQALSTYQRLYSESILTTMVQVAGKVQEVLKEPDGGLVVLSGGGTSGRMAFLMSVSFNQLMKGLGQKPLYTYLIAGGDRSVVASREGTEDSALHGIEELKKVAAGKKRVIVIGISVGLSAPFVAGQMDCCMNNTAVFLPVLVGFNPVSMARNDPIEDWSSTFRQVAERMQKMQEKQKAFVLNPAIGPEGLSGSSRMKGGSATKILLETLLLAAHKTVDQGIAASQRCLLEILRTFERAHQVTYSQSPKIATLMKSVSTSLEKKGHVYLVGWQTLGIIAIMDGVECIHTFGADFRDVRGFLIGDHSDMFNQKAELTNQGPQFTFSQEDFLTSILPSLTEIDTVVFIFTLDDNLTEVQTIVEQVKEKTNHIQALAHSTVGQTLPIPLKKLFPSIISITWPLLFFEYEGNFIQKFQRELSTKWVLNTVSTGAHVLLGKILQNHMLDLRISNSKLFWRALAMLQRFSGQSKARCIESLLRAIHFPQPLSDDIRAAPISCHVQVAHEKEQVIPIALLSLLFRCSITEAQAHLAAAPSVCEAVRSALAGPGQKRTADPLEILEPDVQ
Experiment: GKRP LC MS/MS Biochemical Assay
Details: GK-GKRP EC50 (LC MS/MS), 13C-glucose-6-phosphate formation; 1 μM GKRP (10×), 30 nM GK (5×)
Counter-ions that a name gives are not always drawn.
Rule: EC50 below 0.2 µM gives Criterion met, anything at or above gives Criterion not met.

# count of solved cases: 5
>  <compound>
CC(O)(c1ccc(N2CCN(S(=O)(=O)c3cccs3)CC2CC2CCOCC2)cc1)C(F)(F)F (single isomer, unassigned) [Example 37 Peak #1]

>  <system.under.test>
GKRP (Glucokinase Regulatory Protein) with human His-hepatic GK (Homo sapiens)

>  <assigned.class>
Criterion met

$$$$
>  <compound>
CC(O)(c1ccc(N2CCN(S(=O)(=O)c3nccs3)CC2)cc1)C(F)(F)F (racemic) [Example 32, trifluoroacetate]

>  <system.under.test>
GKRP (Glucokinase Regulatory Protein) with human His-hepatic GK (Homo sapiens)

>  <assigned.class>
Criterion not met

$$$$
>  <compound>
CC(O)(c1ccc(N2CCN(S(=O)(=O)c3cccs3)CC2Cc2ccccc2F)cc1)C(F)(F)F (mixture of isomers)

>  <system.under.test>
GKRP (Glucokinase Regulatory Protein) with human His-hepatic GK (Homo sapiens)

>  <assigned.class>
Criterion not met

$$$$
>  <compound>
O=S(=O)(c1cccs1)N1CCN(c2ccc(C(O)(CO)C(F)(F)F)cc2)[C@@H](Cc2ccccc2)C1 (single isomer, unassigned) [Example 68 Peak #2]

>  <system.under.test>
GKRP (Glucokinase Regulatory Protein) with human His-hepatic GK (Homo sapiens)

>  <assigned.class>
Criterion met

$$$$
>  <compound>
CN(Cc1ccccc1)CC1CN(S(=O)(=O)c2cccs2)CCN1c1ccc(C(C)(O)C(F)(F)F)cc1 (mixture of isomers)

>  <system.under.test>
GKRP (Glucokinase Regulatory Protein) with human His-hepatic GK (Homo sapiens)

>  <assigned.class>
Criterion not met

$$$$

Kindly review the next compound as well.
Threshold test, EC50 < 0.2 µM: CC(O)(c1ccc(N2CCN(S(=O)(=O)c3cccs3)CC2CN2CC(O)C2)cc1)C(F)(F)F (mixture of isomers) Criterion not met

Values from patent US8431563B2
